Parameter selectivity ratio: see the listing below.
Assay: Therapeutic index, ratio of CC50 for human HaCaT cells to 1/2 times MIC for Staphylococcus aureus ATCC 25923
Type: toxicity
Details: read-out: TI

Structure	selectivity ratio
C#Cc1cccc(NCc2cc([N+](=O)[O-])cc(Br)c2O)c1	25
CC(C)(C)c1ccccc1NCc1cc([N+](=O)[O-])ccc1O	9
CC(C)(C)c1cccc(NCc2cc([N+](=O)[O-])ccc2O)c1	6
O=[N+]([O-])c1ccc(O)c(/C=N/c2cccc(Cl)c2)c1	69
O=[N+]([O-])c1ccc(O)c(CNc2ccccc2C(F)(F)F)c1	6
C#Cc1cccc(NCc2cc(Cl)cc(Cl)c2O)c1	32
O=[N+]([O-])c1ccc(O)c(CNc2ccccc2Cl)c1	6
O=[N+]([O-])c1ccc(O)c(/C=N/c2ccccc2Cl)c1	96
CC(C)(C)c1ccc(NCc2cc([N+](=O)[O-])ccc2O)cc1	12

Values were extracted from ChEMBL document CHEMBL4364256.
